test-system: T1, human MSLN-R3 protein expressed on HEK293T cells (HEK293T-hMSLN-R3) (human, UniProt Q13421 487-606)
T1 construct: C-terminal limit uncertain
T1 sequence (Q13421 495-614): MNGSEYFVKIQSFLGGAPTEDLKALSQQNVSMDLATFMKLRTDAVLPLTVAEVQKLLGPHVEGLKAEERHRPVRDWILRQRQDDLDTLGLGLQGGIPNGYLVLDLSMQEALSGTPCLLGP
assay-overview: FACS on HEK293T-hMSLN-R3 cells;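 also: chimeric antibodies incubated with cells on ice for 2 h, binding read by flow cytometry as mean fluorescence intensity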
Mark 1.0 for reported Maximum mean fluorescence intensity of 100 or greater; mark 0.0 for anything smaller.

Solved entries (count: 3):
1. S009-F8-18.9 (antibody, human IgG1, kappa, V domains shown, human-murine chimeric antibody, human IgG1/kappa constant regions) VH: EFQLQQSGPELVKPGASVKISCKASGYSFTDYNMNWVKQSNGKSLEWIGIINPNYGTTSYNQKFKGRATLTVDQSSSTAYVQLNSLTSEDSAVYYCARGGYDNEAMDYWGQGTSVTVSS VL: QIVLTQSPAIMSASPGEKVTMTCSASSSVSYMHWYQQKSGTSPKRWIYDTSKLASGVPARFSGSGSGTSYSLTISSMEAEDAATYYCQQWSSNPPTFGAGTKLELKR
1.0
2. S009-F8-8.22 (antibody, human IgG1, kappa, V domains shown, human-murine chimeric antibody, human IgG1/kappa constant regions) VH: EVQLQQSGPELVKPGASVKMSCKASGYTFTDYIIHWVKQSHGKSLEWIAYIFPNNGGTGYNQKFRGKATLTVNKSSSTAYMELRSLTSEDSAVYYCARWRLRQYFDVWGTGTTVTVSS VL: DIVMTQSQKFMSTIVGDRVSITCKASQNVGTAVAWYQQKPGQSPKLLIYSASNRYTGVPDRFTGSGSGTDFTLTISNMQSEDLADYFCQQYSSYPLTFGGGTKLEIKR
1.0
3. S009-F8-28.23 (antibody, human IgG1, kappa, V domains shown, human-murine chimeric antibody, human IgG1/kappa constant regions) VH: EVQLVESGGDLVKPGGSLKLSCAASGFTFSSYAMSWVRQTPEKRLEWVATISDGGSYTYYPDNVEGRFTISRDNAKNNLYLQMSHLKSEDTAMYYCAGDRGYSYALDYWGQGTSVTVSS VL: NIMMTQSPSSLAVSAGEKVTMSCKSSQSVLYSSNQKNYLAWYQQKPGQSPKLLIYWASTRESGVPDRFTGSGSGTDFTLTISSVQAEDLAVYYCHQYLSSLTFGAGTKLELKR
0.0

Prompt line: Check if Maximum mean fluorescence intensity >= 100 (inclusive). Item: S009-F8-4.5 (antibody, human IgG1, kappa, V domains shown, human-murine chimeric antibody, human IgG1/kappa constant regions) VH: QVQLQQPGAELVKPGASVKLSCKASGYTFTIYWMHWVKQRPGQGLEWIGMIHPNSGNTNYNEKFKSKATLTVDKSSSTAYMQLSSLTSEDSAVYYCSLIHWYFDVWGTGTTVTVSS VL: QIVLTQSPAIMSASPGEKVTMTCSASSSVSYMYWYQQKPGSSPRLLIYDTSNLASGVPVRFSGSGSGTSYSLTISRMEAEDAATYYCQQWSSYPLTFGAGTKLELKR
Response line: 1.0
